The measurements presented in this section are drawn from patent US20220177587A1.

Let's look at some binders and their measured Fold change to WT CD80.
# target_or_system: CD28 (human) (UniProt P10747)
# test_details: flow cytometry, Jurkat cells (CD28); MFI over CD80 WT IgV-Fc
Kindly answer with a numeric value in fold, unit omitted.

* variant CD80 IgV-Fc (inert) H18Y/A26P/E35D/M47Y/V68I/A71G/D90G (Fc fusion) VIHVTKEVKEVATLSCGYNVSVEELPQTRIYWQKDKKMVLTMMSGDYNIWPEYKNRTIFDITNNLSIIILGLRPSDEGTYECVVLKYEKGAFKREHLAEVTLSVKAD | 17.8

Record request: Fold change to WT CD80 value, item variant CD80 IgV-Fc (inert) H18V/A26P/E35D/M47L/V68M/A71G (Fc fusion) VIHVTKEVKEVATLSCGVNVSVEELPQTRIYWQKDKKMVLTMMSGDLNIWPEYKNRTIFDITNNLSIMILGLRPSDEGTYECVVLKYEKDAFKREHLAEVTLSVKAD
24

If you can, please state the reported Fold change to WT CD80 value of variant CD80 IgV-Fc (inert) H18Y/E35D/M47V/V68L/A71G/D90G (Fc fusion) VIHVTKEVKEVATLSCGYNVSVEELAQTRIYWQKDKKMVLTMMSGDVNIWPEYKNRTIFDITNNLSILILGLRPSDEGTYECVVLKYEKGAFKREHLAEVTLSVKAD .
25
